All figures here come from the supplement of paper PMC7877785.

Test: self-splicing fitness, log relative to wild type (ln ratio); higher = more splicing; Tetrahymena group I intron in knt gene, E. coli kanamycin selection, DiMSum; sequences stand for … in CUCUCU…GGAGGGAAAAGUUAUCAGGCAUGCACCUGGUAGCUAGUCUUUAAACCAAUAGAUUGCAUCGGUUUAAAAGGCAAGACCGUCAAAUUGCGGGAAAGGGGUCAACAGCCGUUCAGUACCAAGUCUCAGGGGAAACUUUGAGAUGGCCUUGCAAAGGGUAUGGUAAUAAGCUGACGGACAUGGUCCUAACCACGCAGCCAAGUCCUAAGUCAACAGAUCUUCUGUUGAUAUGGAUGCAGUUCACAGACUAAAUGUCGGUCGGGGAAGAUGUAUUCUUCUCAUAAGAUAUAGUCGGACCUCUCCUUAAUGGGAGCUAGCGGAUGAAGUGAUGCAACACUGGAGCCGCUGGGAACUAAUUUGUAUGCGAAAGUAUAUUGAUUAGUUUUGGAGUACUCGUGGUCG;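 also: selection with 25 µg/mL kanamycin versus none on LB agar overnight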
Settings: 37 °C
Listed sequences paired with reported self-splicing fitness (ln)

Below: 5 sequences and their reported self-splicing fitness (ln).
{"CONSTRUCT_SEQUENCE": "GCCGAGCAAUAUUACGUCUA", "self-splicing fitness (ln)": -0.742}
{"CONSTRUCT_SEQUENCE": "UUGAAGCAAUAUUACGCCGA", "self-splicing fitness (ln)": 0.737}
{"CONSTRUCT_SEQUENCE": "GGGUAGCAAUAUUACGGCUG", "self-splicing fitness (ln)": -1.05}
{"CONSTRUCT_SEQUENCE": "CAAGAGCAAUAUUACGCGUG", "self-splicing fitness (ln)": -1.6}
{"CONSTRUCT_SEQUENCE": "CCGCAGCAAUAUUACGACGC", "self-splicing fitness (ln)": -2.74}

Turning now to a further sequence:
Lookup: # lookup: self-splicing fitness (ln) of `CGUUAGCAAUAUUACGACCA`
Found: -0.925

---

Assay: self-splicing fitness, log relative to wild type (ln ratio); higher = more splicing; Tetrahymena group I intron in knt gene, E. coli kanamycin selection, DiMSum; sequences stand for … in CUCUCU…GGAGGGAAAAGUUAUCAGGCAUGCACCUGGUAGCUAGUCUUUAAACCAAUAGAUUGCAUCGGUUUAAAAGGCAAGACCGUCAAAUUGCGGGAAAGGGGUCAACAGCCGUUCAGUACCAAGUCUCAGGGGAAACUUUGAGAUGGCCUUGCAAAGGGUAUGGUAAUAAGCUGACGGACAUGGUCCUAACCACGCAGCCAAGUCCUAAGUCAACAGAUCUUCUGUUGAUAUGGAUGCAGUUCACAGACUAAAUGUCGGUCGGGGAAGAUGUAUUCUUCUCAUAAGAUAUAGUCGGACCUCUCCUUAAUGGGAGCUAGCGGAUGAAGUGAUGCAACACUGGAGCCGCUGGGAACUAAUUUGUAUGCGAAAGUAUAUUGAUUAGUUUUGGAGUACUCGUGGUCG
Conditions: 30 °C
# maps each entry to its self-splicing fitness (ln)
Number, no unit, nothing else.

Some sequences with recorded self-splicing fitness (ln):
{"CONSTRUCT_SEQUENCE": "AAACAGCAAUAUUACGGACA", "self-splicing fitness (ln)": -1.54}
{"CONSTRUCT_SEQUENCE": "AUGAAGCAAUAUUACGUUCA", "self-splicing fitness (ln)": 0.00482}
{"CONSTRUCT_SEQUENCE": "CUAUAGCAAUAUUACGAUCA", "self-splicing fitness (ln)": -3.08}
{"CONSTRUCT_SEQUENCE": "GGUGAGCAAUAUUACGACCU", "self-splicing fitness (ln)": -2.12}
{"CONSTRUCT_SEQUENCE": "AACCAGCAAUAUUACGUGAA", "self-splicing fitness (ln)": -0.843}
{"CONSTRUCT_SEQUENCE": "AGUGAGCAAUAUUACGUGAG", "self-splicing fitness (ln)": -3.58}
{"CONSTRUCT_SEQUENCE": "UAGUAGCAAUAUUACGGCCA", "self-splicing fitness (ln)": -1.22}
{"CONSTRUCT_SEQUENCE": "CCACAGCAAUAUUACGCAAU", "self-splicing fitness (ln)": -3.41}

Lookup: Quick one: self-splicing fitness (ln) of `UCAAAGCAAUAUUACGGAGG` ?
Found: -3.48

Lookup: Requested read-out: self-splicing fitness (ln). Entry: `AUGGAGCAAUAUUACGAUUG`
Found: -2.3

Lookup: Sample `AUCCAGCAAUAUUACGUUUA` — what was its self-splicing fitness (ln)?
Found: -1.81

Lookup: Quick check: self-splicing fitness (ln) of `GCACAGCAAUAUUACGCAAA` ?
Found: -1.72

Lookup: Which self-splicing fitness (ln) value belongs to `AAAUAGCAAUAUUACGCAUC` ?
Found: -3.65

---

Experiment: self-splicing fitness, log relative to wild type (ln ratio); higher = more splicing; Tetrahymena group I intron in knt gene, E. coli kanamycin selection, DiMSum; sequences stand for … in CUCUCU…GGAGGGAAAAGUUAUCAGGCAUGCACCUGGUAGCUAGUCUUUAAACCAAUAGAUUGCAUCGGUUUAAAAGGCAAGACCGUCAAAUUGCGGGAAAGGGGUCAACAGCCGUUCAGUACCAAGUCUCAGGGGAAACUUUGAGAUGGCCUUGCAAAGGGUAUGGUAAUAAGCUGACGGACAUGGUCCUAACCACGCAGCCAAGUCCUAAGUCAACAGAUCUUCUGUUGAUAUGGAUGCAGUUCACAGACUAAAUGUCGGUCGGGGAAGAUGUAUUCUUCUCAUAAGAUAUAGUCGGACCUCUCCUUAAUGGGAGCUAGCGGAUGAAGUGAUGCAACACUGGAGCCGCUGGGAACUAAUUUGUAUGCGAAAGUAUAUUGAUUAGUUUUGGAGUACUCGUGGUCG
Conditions: 30 °C
Consider the reported self-splicing fitness (ln) of an entry and match it to a band in low-valued: < -3; mid-valued: ≥ -3 and < -2; high-valued: ≥ -2

Use the examples below as a reference point.
{"CONSTRUCT_SEQUENCE": "AUCUAGCAAUAUUACGAAGA", "GROUP": "high-valued"}
{"CONSTRUCT_SEQUENCE": "UAGGAGCAAUAUUACGGCUG", "GROUP": "high-valued"}
{"CONSTRUCT_SEQUENCE": "UUUAAGCAAUAUUACGCUAA", "GROUP": "mid-valued"}
{"CONSTRUCT_SEQUENCE": "CUACAGCAAUAUUACGAGUC", "GROUP": "low-valued"}
{"CONSTRUCT_SEQUENCE": "AAAGAGCAAUAUUACGAGUA", "GROUP": "low-valued"}
{"CONSTRUCT_SEQUENCE": "ACGUAGCAAUAUUACGACAU", "GROUP": "high-valued"}
{"CONSTRUCT_SEQUENCE": "GGAUAGCAAUAUUACGAGCG", "GROUP": "high-valued"}
{"CONSTRUCT_SEQUENCE": "UCACAGCAAUAUUACGGAGA", "GROUP": "high-valued"}

Next, consider the following sequence.
Lookup: Please classify: `UAGAAGCAAUAUUACGACCU`
Found: high-valued

---

Assay: self-splicing fitness, log relative to wild type (ln ratio); higher = more splicing; Tetrahymena group I intron in knt gene, E. coli kanamycin selection, DiMSum; sequences stand for … in CUCUCU…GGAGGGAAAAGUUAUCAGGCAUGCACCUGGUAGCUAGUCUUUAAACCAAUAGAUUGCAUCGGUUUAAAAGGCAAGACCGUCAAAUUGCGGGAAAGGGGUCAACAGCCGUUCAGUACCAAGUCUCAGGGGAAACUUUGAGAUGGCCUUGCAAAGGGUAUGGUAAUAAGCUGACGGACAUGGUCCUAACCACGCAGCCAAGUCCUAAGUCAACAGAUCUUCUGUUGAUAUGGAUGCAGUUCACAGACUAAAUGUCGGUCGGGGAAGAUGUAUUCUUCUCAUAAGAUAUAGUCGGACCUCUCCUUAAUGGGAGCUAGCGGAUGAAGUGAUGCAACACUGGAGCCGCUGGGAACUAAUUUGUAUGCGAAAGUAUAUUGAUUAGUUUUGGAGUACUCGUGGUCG
Settings: 30 °C
PROPERTY_LABEL: self-splicing fitness (ln)
# answer = number (no unit)

Use these answered entries as a reference point.
{"CONSTRUCT_SEQUENCE": "CCGCAGCAAUAUUACGUCGU", "self-splicing fitness (ln)": -4.02}
{"CONSTRUCT_SEQUENCE": "AAUUAGCAAUAUUACGGUAC", "self-splicing fitness (ln)": -2.42}

Lookup: So what does the record say about self-splicing fitness (ln) for `AACUAGCAAUAUUACGCAAG` ?
Found: -3.14

Lookup: Bench note: what self-splicing fitness (ln) did `CCCGAGCAAUAUUACGCUAA` show?
Found: -2.14

Lookup: Give its self-splicing fitness (ln) value. Item: `AUACAGCAAUAUUACGUGAA`
Found: -2.19

Lookup: Returns the measured self-splicing fitness (ln) for the input sequence. Input: `ACCUAGCAAUAUUACGGCAG`
Found: -3.99

Lookup: Report self-splicing fitness (ln) for `UCCGAGCAAUAUUACGAAAC` please.
Found: -2.59
